# System Name: Human Cot (Homo sapiens (Human))
# Protocol Text: High Throughput Cot Biochemical Assay
# Condition Notes: read-out: IC50 HTRF; Cot HTRF (TR-FRET) biochemical assay
Value Type: IC50 (nM)

Cc1ncccc1[C@H](Nc1cc(Cl)c2ncc(C#N)c(Nc3cccc(Cl)c3F)c2c1)c1cn(C2CCN(C(C)(C)C)CC2)nn1 [Example 247]	2
Cn1nnc2cccc([C@H](Nc3cc(C#N)c4ncc(C#N)c(NCC(C)(C)C)c4c3)c3cn(C4(C(F)F)CC4)nn3)c21 [Example 559]	2
Cc1nc(F)ccc1[C@H](Nc1cc(Cl)c2ncc(C#N)c(NCC(C)(C)C)c2c1)c1cn(C(F)(F)CO)nn1 [Example 584]	2

I: CC(C)(C)CNc1c(C#N)cnc2c(C#N)cc(N[C@H](c3cn(C4(C(F)F)CC4)nn3)c3ccc(F)c4cnccc34)cc12 [Example 672]
II: CC(C)(C)CNc1c(C#N)cnc2c(Cl)cc(N[C@H](c3cn(C4(C(F)F)CC4)nn3)c3cccc4[nH]ncc34)cc12 [Example 500]
III: CC[C@@H](Nc1c(C#N)cnc2c(Cl)cc(N[C@@H](c3cccnc3)c3cn(C(C)(C)C)nn3)cc12)c1ccccc1 [Example 192]
IV: CC(C)n1cc([C@@H](Nc2cc(Cl)c3ncc(C#N)c(Nc4ccc(F)c(Cl)c4)c3c2)c2cc(Br)cnc2Cl)nn1 [Example 293]
Ask: Please list the entries, largest IC50 first. Output the labels ranked as instructed.
Result: IV, II, III, I

----------
# System Name: Human Cot (Homo sapiens (Human), UniProt P41279)
# Sequence (P41279 30-397): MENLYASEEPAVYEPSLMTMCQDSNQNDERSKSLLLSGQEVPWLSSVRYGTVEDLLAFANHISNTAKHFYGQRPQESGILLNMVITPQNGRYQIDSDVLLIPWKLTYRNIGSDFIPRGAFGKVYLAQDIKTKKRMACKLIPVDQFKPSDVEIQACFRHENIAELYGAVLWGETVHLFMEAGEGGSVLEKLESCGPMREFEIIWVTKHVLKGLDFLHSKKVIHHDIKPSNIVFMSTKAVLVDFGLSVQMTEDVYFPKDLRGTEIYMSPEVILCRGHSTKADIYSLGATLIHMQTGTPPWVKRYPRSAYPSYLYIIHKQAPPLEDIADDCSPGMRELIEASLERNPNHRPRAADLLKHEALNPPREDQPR
# Protocol Text: High Throughput Cot Biochemical Assay
# Condition Notes: IC50 HTRF, Cot HTRF (TR-FRET KinEASE) biochemical assay, 400 μM ATP
Value Type: IC50 (nM)

Example entries and their recorded answers appear below.
CC(C)(C)CNc1c(C#N)cnc2c(C#N)cc(N[C@@H](c3ccc(C#N)nc3)c3cn(C4(C(F)(F)F)CC4)nn3)cc12	51
C[C@@H](CF)n1cc([C@@H](Nc2cc(C#N)c3ncc(C#N)c(NCC(C)(C)C)c3c2)c2cccc3c(=O)n(C)ccc23)nn1	2
CC(C)(C)CNc1c(C#N)cnc2c(Cl)cc(N[C@H](c3cn(C(CF)CF)nn3)c3cccc4ncccc34)cc12	9
CC1(n2cc([C@@H](Nc3cc(C#N)c4ncc(C#N)c(NCC(C)(C)C(F)(F)F)c4c3)c3ccc(F)c4ncccc34)nn2)CC1	2
C[C@@H](CF)n1cc([C@@H](Nc2cc(Cl)c3ncc(C#N)c(NCC(C)(C)C)c3c2)c2cccc3ncccc23)nn1	7

P: COc1c([C@@H](Nc2cc(Cl)c3ncc(C#N)c(NCC(C)(C)C)c3c2)c2ccc(F)nc2C)nnn1C1(C(F)F)CC1
Q: Cn1ccc2c([C@H](Nc3cc(C#N)c4ncc(C#N)c(NCC(C)(C)C(F)(F)F)c4c3)c3cn(C4(C5CC5)CC4)nn3)cccc2c1=O
R: CC(C)(CNc1c(C#N)cnc2c(C#N)cc(N[C@H](c3cn(C45CC(C4)C5)nn3)c3ccc(F)c4ncccc34)cc12)C(F)(F)F
S: Cc1nc(F)ccc1[C@H](Nc1cc(C#N)c2ncc(C#N)c(NCC3C(C)(C)C3(C)C)c2c1)c1cn(C2(C(F)F)CC2)nn1
Ask: Please list the entries, largest IC50 first. Output the labels ranked as instructed.
Result: S, P, Q, R
(S: 20 nM, P: 4 nM, Q: 2 nM, R: 1 nM)

1: Cn1ccc2c([C@H](Nc3cc(C#N)c4ncc(C#N)c(NCC(C)(C)C)c4c3)c3cn(C4(C(F)F)CC4)nn3)ccnc21
2: CC(C)(C)CNc1c(C#N)cnc2c(C#N)cc(N[C@H](c3cn(C45CC(C4)C5)nn3)c3ccc(F)c4ncccc34)cc12
Ask: Out of 1 and 2 , name the one with the higher IC50. Give the label of your selection.
Result: 1
(1: 5 nM, 2: 2 nM)

I: Cc1nc(F)ccc1[C@H](Nc1cc(Cl)c2ncc(C#N)c(NCC(C)(C)C(F)(F)F)c2c1)c1nnn(C2(C)CC2)c1F
II: Cn1ccc2c([C@H](Nc3cc(C#N)c4ncc(C#N)c(NCC(C)(C)C)c4c3)c3cn(C4(C)CC4)nn3)cccc2c1=O
Ask: Please let me know which one, I or II , has a lower measured IC50 value. Give the label of your selection.
Result: II
(II: 1 nM, I: 3 nM)

a: Cc1nc(F)ccc1[C@H](Nc1cc(C#N)c2ncc(C#N)c(NCC(C)(C)C)c2c1)c1cn(C2(C)COC2)nn1
b: Cn1c(=O)ccc2c([C@H](Nc3cc(C#N)c4ncc(C#N)c(NCC(C)(C)C)c4c3)c3cn(C45CC(C4)C5)nn3)cccc21
c: CC[C@@H](Nc1c(C#N)cnc2c(Cl)cc(N[C@@H](c3ccc(F)nc3C)c3nnn(C4(C(F)(F)F)CC4)c3F)cc12)c1ccccc1
Ask: Which order do these items take when sorted by rising IC50? List them. Output the labels ranked as instructed.
Result: a, b, c

----------
# Tested on: TNFα
# Protocol Text: Cot Monocyte TNFα Cell Based Assay
# Condition Notes: Homo sapiens, Monocyte, read-out: EC50 TNF, LPS-stimulated human monocytes, TNFα TR-FRET
pEC50: −log10 of the molar value.
Value Type: pEC50

Cn1c(=O)ccc2c([C@H](Nc3cc(C#N)c4ncc(C#N)c(NCC(C)(C)C)c4c3)c3cn(C45CC(C4)C5)nn3)cccc21	7.48
CCC(C)n1cc([C@@H](Nc2cc(Cl)c3ncc(C#N)c(NCC(C)(C)C)c3c2)c2cccc3c(=O)n(C)ccc23)nn1 (stereo partly drawn)	7.51
CC(C)(C)CNc1c(C#N)cnc2c(Cl)cc(N[C@H](c3cn(C45CC(C4)C5)nn3)c3ccc(F)c4ncccc34)cc12	7.55
Cc1nc(F)ccc1[C@H](Nc1cc(Cl)c2ncc(C#N)c(NCC(C)(C)C)c2c1)c1cn(CCCO)nn1	6.85

P: COc1c([C@@H](Nc2cc(Cl)c3ncc(C#N)c(NCC(C)(C)C)c3c2)c2ccc(F)nc2C)nnn1C1CC1
Q: Cc1nc(F)ccc1[C@H](Nc1cc(C#N)c2ncc(C#N)c(NCC(C)(C)C(F)(F)F)c2c1)c1cn(C23CC(C2)C3)nn1
Ask: Please let me know which one, P or Q , has a lower measured pEC50 value. Give the label of your selection.
Result: P

----------
# System Name: Human Cot (Homo sapiens (Human), UniProt P41279)
# Protocol Text: High Throughput Cot Biochemical Assay
# Condition Notes: read-out: IC50 HTRF; Cot HTRF (TR-FRET) biochemical assay
Value Type: IC50 (nM)

CC(C)(C)CNc1c(C#N)cnc2c(Cl)cc(N[C@H](c3cn([C@@H]4C[C@@H]4F)nn3)c3cccc4ncccc34)cc12	3
CC[C@@H](Nc1c(C#N)cnc2c(Cl)cc(N[C@@H](c3cccnc3)c3cn([C@H]4[C@@H]5CNC[C@@H]54)nn3)cc12)c1ccccc1	1
CC[C@@H](Nc1c(C#N)cnc2c(F)cc(N[C@@H](c3ccc(F)nc3)c3cn(C4CC4)nn3)cc12)c1ccccc1	5
CC(C)(C)CNc1c(C#N)cnc2c(C#N)cc(N[C@H](c3cn(C4(CF)CC4)nn3)c3cccc4cnccc34)cc12	7
CC[C@@H](Nc1c(C#N)cnc2c(Cl)cc(N[C@@H](c3cccnc3)c3cn([C@H]4[C@@H]5CN(C6COC6)C[C@@H]54)nn3)cc12)c1ccccc1	2
CC(C)(C)N1CCC(n2cc([C@@H](Nc3cc(Cl)c4ncc(C#N)c(Nc5cccc(Cl)c5F)c4c3)c3cccnc3)nn2)CC1	4
Cc1ncsc1[C@H](Nc1cc(Cl)c2ncc(C#N)c(NCC(C)(C)C)c2c1)c1cn(C2(C(F)(F)F)CC2)nn1	10
Cn1ncc2c([C@H](Nc3cc(C#N)c4ncc(C#N)c(NCC(C)(C)C)c4c3)c3cn(Cc4c(F)cccc4F)nn3)cccc21	4

P: Cc1nc(F)ccc1[C@H](Nc1cc(Cl)c2ncc(C#N)c(N[C@H]3[C@@H]4COC[C@@H]43)c2c1)c1cn(C2(C(F)(F)F)CC2)nn1
Q: Cc1nc(F)ccc1[C@@H](Nc1cc(Cl)c2ncc(C#N)c(NC3[C@H]4CCC[C@H]34)c2c1)c1cn(C2(C(F)(F)F)CC2)nn1 (stereo partly shown)
R: N#Cc1cnc2c(Cl)cc(N[C@@H](c3cccnc3)c3cn(C4COC4)nn3)cc2c1N[C@H](CCO)c1ccccc1
S: Cc1nc(F)ccc1[C@H](Nc1cc(C#N)c2ncc(C#N)c(N[C@@H]3CCOCC3(C)C)c2c1)c1cn(C2(C3CC3)CC2)nn1
T: N#Cc1cnc2c(Cl)cc(N[C@@H](c3ccsc3)c3cn(C4CCNCC4)nn3)cc2c1Nc1ccc(F)c(Cl)c1
Ask: Which order do these items take when sorted by rising IC50? List them. Output the labels ranked as instructed.
Result: S, T, Q, P, R
